TARGET OR TEST SYSTEM: Leucine-rich repeat serine/threonine-protein kinase 2 (Homo sapiens, UniProt Q5S007, G2019S)
Sequence (Q5S007 whole entry G2019S): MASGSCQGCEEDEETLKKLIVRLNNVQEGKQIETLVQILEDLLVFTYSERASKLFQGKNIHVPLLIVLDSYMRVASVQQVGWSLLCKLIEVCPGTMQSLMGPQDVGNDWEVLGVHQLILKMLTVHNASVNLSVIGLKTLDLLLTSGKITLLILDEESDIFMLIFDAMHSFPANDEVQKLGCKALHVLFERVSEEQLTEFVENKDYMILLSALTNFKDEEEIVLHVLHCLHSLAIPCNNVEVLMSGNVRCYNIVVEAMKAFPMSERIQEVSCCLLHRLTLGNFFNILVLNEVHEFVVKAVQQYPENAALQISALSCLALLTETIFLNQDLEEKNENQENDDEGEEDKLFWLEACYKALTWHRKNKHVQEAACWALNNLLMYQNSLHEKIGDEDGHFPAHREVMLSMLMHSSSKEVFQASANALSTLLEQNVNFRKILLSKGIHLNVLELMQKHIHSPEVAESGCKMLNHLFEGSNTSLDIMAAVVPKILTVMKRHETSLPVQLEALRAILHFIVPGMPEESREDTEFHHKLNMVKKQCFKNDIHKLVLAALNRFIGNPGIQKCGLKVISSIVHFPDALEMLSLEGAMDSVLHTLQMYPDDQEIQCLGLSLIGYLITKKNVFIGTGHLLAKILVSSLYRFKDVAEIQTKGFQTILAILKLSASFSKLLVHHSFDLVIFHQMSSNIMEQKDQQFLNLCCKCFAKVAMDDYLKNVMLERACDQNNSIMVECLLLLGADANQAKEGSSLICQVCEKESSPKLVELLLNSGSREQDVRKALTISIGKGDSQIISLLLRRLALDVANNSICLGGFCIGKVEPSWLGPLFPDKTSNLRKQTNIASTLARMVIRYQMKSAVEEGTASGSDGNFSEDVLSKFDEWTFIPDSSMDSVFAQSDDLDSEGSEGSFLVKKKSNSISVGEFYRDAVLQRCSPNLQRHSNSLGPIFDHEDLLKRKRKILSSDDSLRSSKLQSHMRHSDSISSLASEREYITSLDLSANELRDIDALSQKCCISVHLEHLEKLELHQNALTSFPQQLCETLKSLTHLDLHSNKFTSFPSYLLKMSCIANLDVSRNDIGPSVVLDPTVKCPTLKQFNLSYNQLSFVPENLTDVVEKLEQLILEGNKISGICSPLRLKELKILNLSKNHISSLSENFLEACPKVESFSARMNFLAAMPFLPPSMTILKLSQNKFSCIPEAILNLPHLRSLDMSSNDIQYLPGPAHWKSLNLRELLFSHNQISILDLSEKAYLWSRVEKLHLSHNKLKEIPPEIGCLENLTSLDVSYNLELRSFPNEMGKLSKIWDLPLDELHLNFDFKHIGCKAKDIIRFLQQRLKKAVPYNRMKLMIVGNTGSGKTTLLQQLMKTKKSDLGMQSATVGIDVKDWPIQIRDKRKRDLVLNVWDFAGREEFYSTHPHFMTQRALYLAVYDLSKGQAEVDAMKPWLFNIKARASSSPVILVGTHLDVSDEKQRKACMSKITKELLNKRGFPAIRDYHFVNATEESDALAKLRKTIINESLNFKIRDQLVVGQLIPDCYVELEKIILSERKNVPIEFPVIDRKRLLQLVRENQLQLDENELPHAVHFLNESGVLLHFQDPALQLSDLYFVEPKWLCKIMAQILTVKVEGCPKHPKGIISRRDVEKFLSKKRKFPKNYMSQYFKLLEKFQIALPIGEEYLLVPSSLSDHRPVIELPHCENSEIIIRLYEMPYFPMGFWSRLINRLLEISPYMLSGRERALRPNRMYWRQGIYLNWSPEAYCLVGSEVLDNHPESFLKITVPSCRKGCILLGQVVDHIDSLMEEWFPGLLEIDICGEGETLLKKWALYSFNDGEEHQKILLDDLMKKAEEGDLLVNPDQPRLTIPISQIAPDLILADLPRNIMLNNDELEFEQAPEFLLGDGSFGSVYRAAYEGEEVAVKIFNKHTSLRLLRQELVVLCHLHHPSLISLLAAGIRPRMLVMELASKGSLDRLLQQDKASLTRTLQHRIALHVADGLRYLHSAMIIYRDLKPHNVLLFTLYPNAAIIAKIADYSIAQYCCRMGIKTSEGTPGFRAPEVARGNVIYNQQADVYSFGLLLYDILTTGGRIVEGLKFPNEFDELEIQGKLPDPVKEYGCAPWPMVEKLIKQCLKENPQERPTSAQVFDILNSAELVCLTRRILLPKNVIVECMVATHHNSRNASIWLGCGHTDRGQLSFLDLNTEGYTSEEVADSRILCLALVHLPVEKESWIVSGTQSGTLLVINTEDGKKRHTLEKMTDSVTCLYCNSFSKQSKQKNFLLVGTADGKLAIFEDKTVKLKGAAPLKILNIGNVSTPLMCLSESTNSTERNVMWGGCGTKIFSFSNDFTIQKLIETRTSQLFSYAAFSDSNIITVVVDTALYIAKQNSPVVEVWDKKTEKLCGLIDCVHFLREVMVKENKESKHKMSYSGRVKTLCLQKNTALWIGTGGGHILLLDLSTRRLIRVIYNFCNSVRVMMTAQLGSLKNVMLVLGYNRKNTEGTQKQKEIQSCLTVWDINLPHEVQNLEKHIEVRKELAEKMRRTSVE
PROCEDURE SUMMARY: Inhibition LRRK2 G2019S mutant (unknown origin) Ser935 phosphorylation in HEK293 cells
Format: cell-based
METRIC: IC50 (nM)
Numbers only, in nM.

q: What measured IC50 goes with CC(C)n1cc(-c2cc(-c3ccc(CN4CCOCC4)cc3)cnc2N)nn1 ?
a: 920

----------
TARGET OR TEST SYSTEM: Leucine-rich repeat serine/threonine-protein kinase 2 (Homo sapiens)
PROCEDURE SUMMARY: Inhibition wild type LRRK2 (unknown origin) Ser935 phosphorylation in HEK293 cells
Format: cell-based
METRIC: pIC50
One number for each entry, as −log10 of the molar value.

q: Leucine-rich repeat serine/threonine-protein kinase 2 (Homo sapiens) / pIC50 / CC(C)n1cc(-c2cc(-c3ccc(CN4CCOCC4)cc3)cnc2N)nn1 : value?
a: 5.68

----------
Test system: MDR1
PROCEDURE SUMMARY: Efflux ratio of apparent permeability from basolateral to apical over apical to basolateral side in MDCK cells harboring MDR1
Format: ADME, cell-based, Canis lupus familiaris
STATED CONDITIONS: dog
METRIC: efflux ratio
One number for each entry.

q: What value of efflux ratio has been reported for the following compound? CC(C)n1cc(-c2cc(-c3ccc(CN4CCOCC4)cc3)cnc2N)nn1
a: 0.68

----------
Would you kindly list pIC50 for each of these compounds?
TARGET OR TEST SYSTEM: Leucine-rich repeat serine/threonine-protein kinase 2 (Homo sapiens, UniProt Q5S007, G2019S)
Give bare numbers, as −log10 of the molar value.

> print(dat)
                                   compound  metric  measured
1  Nc1ncc(-c2ccc3[nH]ccc3c2)cc1-c1nnc(C2CC2)o1   pIC50      5.80
2      Cc1ccc(-c2cnc(N)c(-n3cc(C)nn3)c2)cc1   pIC50      5.04
3      Cc1ccc(-c2cnc(N)c(-c3cn(C)cn3)c2)cc1   pIC50      4.24
4       CCn1cc(-c2cc(-c3ccc(C)cc3)cnc2N)cn1   pIC50      4.92

State the recorded pIC50 for every item in the following list.
1. Cn1cc(-c2cc(-c3ccc4[nH]ccc4c3)cnc2N)cn1
2. Cc1ccc(-c2cnc(N)c(-c3cn[nH]c3)c2)cc1
3. Cn1cc(-c2cc(-c3ccc4c(ccn4C)c3)cnc2N)cn1

a:
[4.89, 4.89, 5.24]
